# assay system: recombinant human phosphodiesterase 10A1 enzyme (Homo sapiens, UniProt Q9Y233)
# Construct: purchased BPS Biosciences; host or cells: Baculovirus infected Sf9 cells
# Sequence (Q9Y233 1-779 isoform Q9Y233-1): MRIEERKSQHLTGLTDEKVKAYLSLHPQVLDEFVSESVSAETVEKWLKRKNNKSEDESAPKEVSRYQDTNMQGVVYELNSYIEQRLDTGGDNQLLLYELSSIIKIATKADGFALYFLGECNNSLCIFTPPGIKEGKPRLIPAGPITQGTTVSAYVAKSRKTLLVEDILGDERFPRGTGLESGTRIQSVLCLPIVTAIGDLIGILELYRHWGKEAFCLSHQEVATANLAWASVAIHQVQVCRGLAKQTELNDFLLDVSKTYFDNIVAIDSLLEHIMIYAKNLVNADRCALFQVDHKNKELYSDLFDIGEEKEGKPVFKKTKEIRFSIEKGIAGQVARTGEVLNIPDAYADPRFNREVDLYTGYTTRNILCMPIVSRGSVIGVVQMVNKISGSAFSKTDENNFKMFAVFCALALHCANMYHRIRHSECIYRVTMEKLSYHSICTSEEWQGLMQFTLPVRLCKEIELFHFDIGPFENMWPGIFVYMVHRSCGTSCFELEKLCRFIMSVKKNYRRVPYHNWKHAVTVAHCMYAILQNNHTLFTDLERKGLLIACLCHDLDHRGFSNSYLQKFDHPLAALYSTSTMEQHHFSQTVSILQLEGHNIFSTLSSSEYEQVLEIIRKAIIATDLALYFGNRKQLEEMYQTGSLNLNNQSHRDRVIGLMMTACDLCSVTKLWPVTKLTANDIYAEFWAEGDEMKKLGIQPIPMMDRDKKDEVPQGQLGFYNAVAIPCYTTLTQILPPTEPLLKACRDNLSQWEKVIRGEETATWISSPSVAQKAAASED
# assay details: PDE10 inhibition assay (PDELight)
# Type: biochemical
# study conditions: 1 uM cAMP; read-out: PDE 10 Inhibition (IC50 in μM)
property label: IC50 (µM)

CC(C)CNc1nccc(-c2cnn3ccccc23)n1 | 37
CC(C)c1nn2ccccc2c1-c1cnc(NC2CCCC2)nc1 | 3.2
CC(C)Nc1nccc(-c2cnn3ccccc23)n1 | 5.8
CC(C)c1nn2ccccc2c1-c1cnc(N)nc1 | 3.8

[1] Cc1cccc2c(-c3ccnc(NC(C)C)n3)cnn12
[2] c1ccn2ncc(-c3ccnc(NC4CCCC4)n3)c2c1
Compare the recorded IC50 of 1 and 2 ; state which is larger. Write down the label attached to your selection.
1

====

# assay system: catalytic domain of phosphodiesterase 4B enzyme cloned from human brain (Homo sapiens)
# Construct: the catalytic domain of phosphodiesterase 4B enzyme; purchased Scottish Biomedical
# Sequence (Q07343 330-659 limits assumed): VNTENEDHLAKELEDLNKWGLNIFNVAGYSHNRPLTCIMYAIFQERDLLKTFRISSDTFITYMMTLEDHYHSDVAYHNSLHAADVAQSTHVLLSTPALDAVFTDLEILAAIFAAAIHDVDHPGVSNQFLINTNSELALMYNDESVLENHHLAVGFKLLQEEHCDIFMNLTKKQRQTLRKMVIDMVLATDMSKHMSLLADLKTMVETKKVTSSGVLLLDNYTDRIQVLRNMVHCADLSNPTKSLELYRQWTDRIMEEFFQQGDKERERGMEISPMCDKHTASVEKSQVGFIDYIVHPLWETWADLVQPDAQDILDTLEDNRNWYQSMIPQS
# assay details: PDE4 inhibition assay (PDELight)
# Assay type: biochemical
# study conditions: 5 uM cAMP; read-out: PDE 4 Inhibition (IC50 in μM)
property label: IC50 (µM)

Example results:
CC(C)CNc1nccc(-c2cnn3ccccc23)n1 | 13
CC(C)CNc1nccc(-c2c(C(C)C)nn3ccccc23)n1 | 3.4

[I] Fc1cccc(-c2nn3ccccc3c2-c2ccnc(NC3CCCC3)n2)c1
[II] CC(C)Nc1ccc(-c2c(C(C)C)nn3ccccc23)cn1
[III] Cc1cccc2c(-c3ccnc(NC(C)C)n3)c(C(C)C)nn12
Number of compounds to sort: 3. Sort criterion: IC50, ascending. Note for the reader: the ranking is given by listing the labels in the order requested.
III, I, II

====

# assay system: recombinant full length human JNK3 enzyme (Homo sapiens, UniProt P53779)
# Construct: recombinant full length human JNK2 or JNK3 enzyme; purchased Upstate; host or cells: Sf21 cells
# Sequence (P53779 whole entry): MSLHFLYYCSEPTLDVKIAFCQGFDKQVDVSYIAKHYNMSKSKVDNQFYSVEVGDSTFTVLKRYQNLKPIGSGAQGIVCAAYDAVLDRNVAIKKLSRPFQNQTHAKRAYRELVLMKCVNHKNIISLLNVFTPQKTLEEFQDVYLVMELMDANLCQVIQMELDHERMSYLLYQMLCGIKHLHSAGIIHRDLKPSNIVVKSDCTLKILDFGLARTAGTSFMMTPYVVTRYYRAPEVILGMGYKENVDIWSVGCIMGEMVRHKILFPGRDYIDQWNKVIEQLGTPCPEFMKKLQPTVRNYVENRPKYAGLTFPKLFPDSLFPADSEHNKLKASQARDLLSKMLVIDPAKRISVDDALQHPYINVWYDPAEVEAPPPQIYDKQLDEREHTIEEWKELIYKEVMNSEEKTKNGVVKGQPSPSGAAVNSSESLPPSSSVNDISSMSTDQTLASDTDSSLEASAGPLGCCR
# assay details: JNK 3 inhibition assay (ATP depletion, luciferase)
# Assay type: biochemical
# study conditions: 10 uM ATP, ATF2 substrate
property label: IC50 (µM)

COCc1nn2ccccc2c1-c1ccnc(NC(C)C)n1 | 1.2
CC(C)Nc1nccc(-c2c(C3CC3)nn3ccccc23)n1 | 1.2
CC(C)c1nn2ccccc2c1-c1ccc(N)nc1 | 68
Cc1cccc2c(-c3ccnc(NC(C)C)n3)c(C(C)C)nn12 | 2.2
CC(C)Cc1nn2ccccc2c1-c1ccnc(NC2CCCC2)n1 | 3.6
c1ccn2nc(C3CC3)c(-c3ccnc(NC4CCCC4)n3)c2c1 | 2.8
Cc1cccc2c(-c3ccnc(NC(C)C)n3)cnn12 | 0.2
Oc1c2ccccc2c2c3c(cccc13)N=N2 [SP600125, reference compound] | 0.2
CC(C)c1nn2ccccc2c1-c1ccnc(NCCCN2CCN(C)CC2)n1 | 83
CC(C)Nc1nccc(-c2c(-c3ccccc3)nn3ccccc23)n1 | 0.1

[I] CC(C)Nc1nccc(-c2cnn3ccccc23)n1
[II] CC(C)c1nn2ccccc2c1-c1ccnc(NC2CCC2)n1
[III] CC(C)c1nn2ccccc2c1-c1ccnc(NCCCO)n1
[IV] CC(C)c1nn2ccccc2c1-c1ccnc(NC2CC2)n1
Order by IC50, ascending. Give me the labels in the order the question wants.
I, IV, II, III

[1] CC(C)c1nn2ccccc2c1-c1ccnc(NC2CCCC2)n1
[2] Brc1cccc(-c2nn3ccccc3c2-c2ccnc(NC3CCCC3)n2)c1
Which entry shows the lesser value of IC50 here, 1 or 2 ? Pick one; state its label.
2

====

# Tested on: phosphorylated c-Jun (serine-73)
# assay details: Phosphorylated c-JUN (6-OHDA), SH-SY5Y
# Type: cell-based
# study conditions: Homo sapiens, 50 uM 6-hydroxydopamine, 1.5 hours, read-out: p-cJun 6-OHDA SH-SY5Y (EC50 in μM)
property label: EC50 (µM)

[A] Cc1cccc2c(-c3ccnc(NC(C)C)n3)cnn12
[B] CC(C)Nc1nccc(-c2c(C3CC3)nn3ccccc23)n1
When the recorded EC50 values are compared, which is smaller: that of A or that of B ? Mark your selection by writing its label.
A
(A: 0.3 µM, B: 7.7 µM)

====

# assay details: Oral pharmacokinetic evaluation
# Type: in vivo, rat
# study conditions: male, rat; Sprague-Dawley rats, 15 mg/kg oral gavage, plasma; read-out: Oral PK Cmax
property label: Cmax (ng/mL)

Some solved cases for reference:
Cc1cccc2c(-c3ccnc(NC(C)C)n3)cnn12 [AV1183] | 56
c1ccn2nc(C3CC3)c(-c3ccnc(NC4CCCC4)n3)c2c1 [AV1198] | 30
CCCNc1nccc(-c2c(C(C)C)nn3ccccc23)n1 [AV1153] | 13

[A] CC(C)Nc1nccc(-c2cnn3ccccc23)n1 [AV1164]
[B] Fc1cccc(-c2nn3ccccc3c2-c2ccnc(NC3CCCC3)n2)c1 [AV1180]
[C] Brc1cccc(-c2nn3ccccc3c2-c2ccnc(NC3CCCC3)n2)c1 [AV1195]
[D] CC(C)Nc1nccc(-c2c(C3CC3)nn3ccccc23)n1 [AV1173]
[E] CC(C)Nc1nccc(-c2c(C(C)C)nn3ccccc23)n1 [AV1137]
Sort (5 compounds) by Cmax: min first. Could you list the labels in the order requested?
A, E, B, D, C
(A: 17 ng/mL, E: 26 ng/mL, B: 58 ng/mL, D: 122 ng/mL, C: 211 ng/mL)

====

# assay system: recombinant full length human JNK3 enzyme (Homo sapiens, UniProt P53779)
# Construct: recombinant full length human JNK2 or JNK3 enzyme; purchased Upstate; host or cells: Sf21 cells
# assay details: JNK 3 inhibition assay (ATP depletion, luciferase)
# Assay type: biochemical
# study conditions: 10 uM ATP, ATF2 substrate
property label: IC50 (µM)

Some molecules with known IC50 results, for comparison:
CCCNc1nccc(-c2c(C(C)C)nn3ccccc23)n1 [AV1153] | 4.1
CCC(CC)Nc1nccc(-c2c(C(C)C)nn3ccccc23)n1 [AV1155] | 27

[1] c1ccn2ncc(-c3ccnc(NC4CCCC4)n3)c2c1 [AV1165]
[2] Cc1nn2ccccc2c1-c1ccnc(NC2CCCC2)n1 [AV1182]
[3] Fc1cccc(-c2nn3ccccc3c2-c2ccnc(NC3CCCC3)n2)c1 [AV1180]
[4] CC(C)Nc1nccc(-c2c(C(C)C)nn3ccccc23)n1 [AV1137]
Arrange these 4 molecules in increasing order of IC50. A complete answer lists every label in the requested sequence.
1, 3, 2, 4

[1] CC(C)CNc1nccc(-c2cnn3ccccc23)n1 [AV1167]
[2] c1ccn2nc(C3CC3)c(-c3ccnc(NC4CC4)n3)c2c1 [AV1200]
Identify the entry with the smaller IC50: 1 or 2 . Lab note: record the label of whichever item you select.
1
(1: 0.7 µM, 2: 1.9 µM)

[a] O=S(=O)(Nc1nccc(-c2cnn3ccccc23)n1)c1ccccc1 [AV1193]
[b] Cc1cccc2c(-c3ccnc(NC4CCCC4)n3)cnn12 [AV1184]
[c] CCCCc1nn2ccccc2c1-c1ccnc(NC(C)C)n1 [AV1174]
Order the records by IC50, with each subsequent value no larger than the one before. # list labels per requested ordering
a, c, b
(a: 53 µM, c: 1.1 µM, b: 0.4 µM)

====

# assay details: Oral pharmacokinetic evaluation
# Format: in vivo, rat
# study conditions: male, rat; Sprague-Dawley rats, 15 mg/kg oral gavage, plasma; read-out: Oral PK AUClast
# Experimental: Three male Sprague-Dawley rats were dosed orally via gavage with 15 mg/kg of test compound. Serial blood samples were collected from the jugular vein at 5, 15, and 30 min, 1, 3, and 6 hours post dosing. Samples were processed for plasma via centrifugation and plasma samples were stored frozen prior to analysis via a sensitive and specific HPLC/MS/MS method. PK parameters were calculated using WinNonLin (Pharsight).
property label: AUC(0-t) (ng·h/mL)

Solved cases (5 shown):
CC(C)Nc1nccc(-c2c(C3CC3)nn3ccccc23)n1 | 462
CCCNc1nccc(-c2c(C(C)C)nn3ccccc23)n1 | 32
Brc1cccc(-c2nn3ccccc3c2-c2ccnc(NC3CCCC3)n2)c1 | 581
c1ccn2nc(C3CC3)c(-c3ccnc(NC4CCCC4)n3)c2c1 | 79
c1ccn2nc(C3CC3)c(-c3ccnc(NC4CC4)n3)c2c1 | 1700

[1] Cc1cccc2c(-c3ccnc(NC(C)C)n3)cnn12
[2] CC(C)Nc1nccc(-c2cnn3ccccc23)n1
[3] CC(C)Nc1nccc(-c2c(C(C)C)nn3ccccc23)n1
# rank_down: sort by AUC(0-t), max first Write out the labels following the order that was asked for.
3, 1, 2

====

# assay system: recombinant full length human JNK3 enzyme (Homo sapiens, UniProt P53779)
# Construct: recombinant full length human JNK2 or JNK3 enzyme; purchased Upstate; host or cells: Sf21 cells
# assay details: JNK 3 inhibition assay (ATP depletion, luciferase)
# Type: biochemical
# study conditions: 10 uM ATP, ATF2 substrate
property label: IC50 (µM)

Clc1cccc(-c2nn3ccccc3c2-c2ccnc(NC3CCCC3)n2)c1 | 0.08
CC(C)c1nn2ccccc2c1-c1ccnc(N)n1 | 18
CCCNc1nccc(-c2cnn3ccccc23)n1 | 0.4
CC(C)Cc1nn2ccccc2c1-c1ccnc(NC(C)C)n1 | 1.8

[a] CC(C)Nc1nccc(-c2c(-c3cccc(F)c3)nn3ccccc23)n1
[b] CC(C)CNc1nccc(-c2c(C(C)C)nn3ccccc23)n1
Could you check which of a and b has a smaller value for IC50? Returns: label corresponding to the selected item.
a
(a: 0.2 µM, b: 1.2 µM)
